This listing pairs compounds with measured z-score.
Test: basal RPMI8226 mitochondrial membrane potential changes, profiling panel, cell-based, JC-1 fluorescence, 24 h, 100 nL compound (AID 1169); further: test concentration not given here
Settings: RPMI8226 myeloma, JC-1 mitochondrial potential fluorescence, higher = more signal
Number only, no unit.

Before answering, review these 2 worked examples.
1. C[C@@H](OCc1ccccc1)C1NC(=O)[C@@]23C(=O)N[C@@H](Cc4ccccc4)C2[C@H](C)[C@@]2(C)O[C@H]2C3/C=C/C/C=C\CNC(=O)CNC1=O (stereo partly drawn) :: 0.158
2. COc1ccc(CCNC(=O)[C@@]2(Sc3ccc(C)cc3)CC(=O)N(Cc3cc(C(F)(F)F)cc(C(F)(F)F)c3)[C@@H]2c2ccc(CO)cc2I)cc1 :: -0.165

[ask] Which value of z-score has been reported for O=C1c2ccccc2[C@](Cc2ccccc2I)(C(=O)NCCN2CCOCC2)[C@H](c2ccc(CO)cc2)N1Cc1ccccc1 in the records?
[reply] 0.231

###

Each entry below carries its reported composite z-score.
Target: Carbonic anhydrase 2 (Homo sapiens) (UniProt P00918)
Assay: CAII small-molecule binders, profiling panel, biochemical, small-molecule microarray, Alexa647-labelled CAII (AID 1122)
Conditions: CAII-A647 binding fluorescence, higher = more signal

// solved cases for composite z-score follow
1) CCOC(=O)[C@H]1C/C=C/C[C@H](C(=O)OCC)C(=O)O[C@H]2[C@@H](OC)O[C@H](CO)[C@@H](OC(=O)Nc3ccc(OC)cc3)[C@@H]2OC1=O :: 0.475
2) COCC(=C=CC[C@H](O)c1ccc(OCCO)cc1)C[C@H](O)COCc1ccccc1 :: 0.561
3) COC(=O)C1(Cc2ccccc2)C=C2C(=C(c3ccccc3)C(=O)C2C)CN1 (configuration not stated) :: 0.725

[ask] So what's the measured composite z-score for this one? C=CC[C@@]12N=C(c3ccc(OCCCO)cc3)O[C@@H]1c1ccccc1N(CCS(=O)(=O)c1ccccc1)C2=O
[reply] 0.724

[ask] What measured composite z-score goes with COC1(C)CN(Cc2ccccc2Br)[C@H](/C=C/c2ccccc2)[C@H](Cc2ccccc2)O1 (some centres not stated) ?
[reply] 0.0397

[ask] Reported composite z-score, compound Cc1ccc(C(C)CC(O)C2C=CC3C(=O)N(c4ccccc4)C(=O)C3N2Nc2ccc(C(C)C)cc2)o1 (configuration not stated) : ____
[reply] 0.541

[ask] Given the compound COCCOC(=O)N1C(=O)[C@@]2(c3cc(C#CC4(O)CCCCCC4)ccc31)[C@H](C(=O)N1CCCCCCC1)[C@H]1C(=O)O[C@H](c3ccccc3)[C@H](c3ccccc3)N1[C@@H]2c1ccc(OCCO)cc1 , what is its reported composite z-score?
[reply] 0.705

###

Assay: A549 cell viability effects, profiling panel, calcein-AM fluorescence, 48 h, basal (AID 1162); further: test concentration not given here
Conditions: higher = more signal
Measured attribute: z-score
Lab note: record the figure alone, no unit after it.

1) COc1ccccc1CN1C(=O)c2ccccc2[C@](Cc2ccccc2I)(C(=O)NC(C)C)[C@@H]1c1ccc(CO)cc1 :: 0.312
2) O=C1O[C@@H](c2ccccc2)[C@@H](c2ccccc2)N2[C@@H](c3ccccc3OCCO)[C@]3(C(=O)Nc4ccc(C#CCCO)cc43)[C@@H](C(=O)Nc3nc4ccccc4s3)[C@H]12 :: 1.02

[ask] Entry under review: [N-]=[N+]=NCc1ccccc1C[C@]1(C(=O)NCC(O)CO)N=C(c2ccc(OCCCO)cc2)O[C@H]1c1ccccc1CN=[N+]=[N-] (stereo partly drawn) . Reported z-score?
[reply] -0.905

[ask] Bench note: what z-score did [N-]=[N+]=Nc1ccccc1[C@@H]1OC(c2ccc(OCCCO)cc2)=N[C@]1(CCS(=O)(=O)c1ccccc1)C(=O)NCCN1CCOCC1 show?
[reply] 0.652

[ask] Suppose we examine the molecule CCOC(=O)C[C@H]1[C@H](OC(=O)c2ccc(-c3ccccc3)cc2)[C@@H](NC(=O)C2CCCCC2)c2cc(OCCCO)ccc2N1C(=O)c1ccccc1 ; what z-score value has been reported?
[reply] -0.28

###

Assay: HepG2 cell viability effects, profiling panel, calcein-AM fluorescence, 48 h, basal (AID 1164); further: test concentration not given here
Conditions: higher = more signal
Criterion: z-score meeting or surpassing -0.4. Met: Fulfilled. Not met: Not fulfilled.

[ask] Say whether COC(=O)[C@@]1(Cc2ccc(F)cc2)[C@H]2c3cc(C(=O)N4CCCC4)n(CCF)c3C[C@H]2CN1C(=O)c1ccccc1 shows z-score of -0.4 or more.
[reply] Fulfilled

[ask] # bool: z-score of NC(N)=NCc1cn(CCc2c[nH]c3ccccc23)nn1 >= -0.4
[reply] Fulfilled

[ask] Please tell me: is the molecule O=C1O[C@H](c2ccccc2)[C@H](c2ccccc2)N2[C@H]1[C@@H](C(=O)O)[C@]1(C(=O)Nc3ccccc31)[C@H]2c1ccc(O)cc1 at or over -0.4 in terms of z-score?
[reply] Not fulfilled

[ask] Could you please find out whether CC(C)(C)OC(=O)CC[C@@]1(C(=O)O)N=C(c2ccc(OCCCO)cc2)O[C@@H]1c1ccccc1CN=[N+]=[N-] has z-score that meets -0.4 or exceeds it?
[reply] Fulfilled

[ask] Does z-score meet or surpass -0.4 for [N-]=[N+]=NCc1ccccc1C[C@]1(C(=O)NCC(O)CO)N=C(c2ccc(OCCCO)cc2)O[C@H]1c1ccccc1CN=[N+]=[N-] (stereo partly drawn) ?
[reply] Not fulfilled

[ask] Hello, I need to know if COC(=O)C[C@H]1O[C@]2(C(=O)N(C)c3ccccc32)[C@@H](C)[C@@H]1[Si](C)(C)c1ccc(C)cc1 has measured z-score not below -0.4. Thanks!
[reply] Fulfilled

[ask] Check the entry C=CCOC(=O)[C@@H]1[C@H]2C(=O)O[C@H](c3ccccc3)[C@H](c3ccccc3)N2[C@H](c2ccc(OCCOC(=O)[C@H]3C[C@H]4C(=O)N[C@@H](CCCCNC(C)=O)C(=O)N4[C@H]3c3cccc(OCCO)c3)cc2)[C@@]12C(=O)Nc1ccc(I)cc12 : does z-score equal or exceed -0.4?
[reply] Fulfilled

[ask] Quick check: does CCOc1cc(C(O)C2C=CC3C(=O)N(C4CCCCC4)C(=O)C3N2Nc2ccc(OC)cc2)ccc1O (stereo not drawn) have z-score greater than or equal to -0.4?
[reply] Fulfilled

[ask] Can CC(C)N1C(=O)[C@@]2(c3ccc([N+](=O)[O-])cc3)CC(=O)N(C3CCCCC3)[C@@H]2c2ccc(CO)cc21 be said to have z-score at or above -0.4?
[reply] Not fulfilled

###

Let's look at some compounds and their measured z-score.
Assay: RPMI8226 myeloma cell viability, profiling panel, resazurin fluorescence, basal, 24 h, PK04 Diversity Set (AID 1180);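 further: RPMI8826 multiple myeloma cell line at 5000 cells per well; test concentration not given here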
Conditions: higher = more signal
Give the value as a plain number.

1) COCCOC(=O)N1C(=O)[C@@]2(c3cc(C#CC4=CCCCC4)ccc31)[C@H](c1ccccc1OCCO)N1[C@H](c3ccccc3)[C@H](c3ccccc3)OC(=O)[C@H]1[C@@H]2C(=O)N1CCc2cc(OC)c(OC)cc2C1 :: -0.486
2) COCCOC(=O)N1C(=O)[C@@]2(c3cc(C#CC4=CCCCC4)ccc31)[C@H](c1ccc(O)cc1)N1[C@H](c3ccccc3)[C@H](c3ccccc3)OC(=O)[C@H]1[C@@H]2C(=O)Nc1nc2ccccc2s1 :: -0.0867
3) CCOC(=CC(=O)OC)CC(O)c1cccc(Cl)c1 (stereo unspecified) :: 0.404
4) COC(=O)[C@@]1(Cc2ccc(F)cc2)[C@H]2c3cc(C(=O)N4CCCC4)n(CCc4c[nH]c5ccc(OC)cc45)c3C[C@H]2CN1C(=O)c1ccccc1 :: -3.36
5) CCOC(=O)C[C@H]1[C@H](OC(=O)c2ccc(-c3ccccc3)cc2)[C@@H](NC(=O)c2ccc3ccccc3c2)c2cc(OCCCO)ccc2N1C(=O)c1ccc2ccccc2n1 :: -0.152

Moving on to the next compound.
[ask] // returns reported z-score for input CC(C)(C)OC(=O)CC[C@]1(C(=O)N2CCOCC2)N=C(c2ccc(OCCCO)cc2)O[C@H]1c1ccccc1
[reply] 0.48

###

Assay: basal 3T3-L1 adipocyte mitochondrial potential changes, profiling panel, cell-based, JC-1 fluorescence, 3T3-L1 adipocytes, 24 h, 100 nL compound (AID 1168); further: test concentration not given here
Conditions: JC-1 mitochondrial fluorescence, higher = more signal, called active from +8 up or from −8 down
Entries and their measured z-score follow.
When you answer, write just the number.

Worked examples, 5 compounds total:
1. C=CCOC(=O)[C@@H]1[C@H]2C(=O)O[C@H](c3ccccc3)[C@H](c3ccccc3)N2[C@H](c2ccc(OCCOC(=O)[C@H]3C[C@H]4C(=O)N[C@@H](CCCCNC(C)=O)C(=O)N4[C@H]3c3cccc(OCCO)c3)cc2)[C@@]12C(=O)Nc1ccc(I)cc12 :: 0.605
2. CC(C)CNC(=O)[C@@H]1c2ccccc2C(=O)N(Cc2cc(F)cc(C(F)(F)F)c2)[C@H]1c1ccc(CO)cc1 :: 0.299
3. COCCOC(=O)N1C(=O)[C@@]2(c3cc(C#CC4=CCCCC4)ccc31)[C@H](c1ccc(O)cc1)N1[C@H](c3ccccc3)[C@H](c3ccccc3)OC(=O)[C@H]1[C@@H]2C(=O)Nc1nc2ccccc2s1 :: -0.451
4. CC=CC(O)C1C=CC2C(=O)N(c3ccccc3)C(=O)C2N1Nc1ccc([N+](=O)[O-])cc1 (stereo unspecified) :: 0.207
5. CCOC(=O)C1=C[C@@H](c2ccccc2)N(S(=O)(=O)c2ccc(C)cc2)[C@H]1c1cccc(Cl)c1 :: -0.591

Attention now turns to another entry.
[ask] # input compound: CC(C)(C)OC(=O)CC[C@]1(C(=O)O)N=C(c2ccc(OCCCO)cc2)O[C@H]1c1ccccc1 ; wanted: its z-score
[reply] 0.721
